Source listed as patent US20220233708A1.

- Tested on: anti-Claudin18.2 antibody IMAB362
- Test Summary: Coupling of linker-drug conjugates with IMAB362
- Format: physicochemical
- Test Conditions: coupling with IMAB362, highest DAR (excessive coupling)
Starred links: 1 amine or outer side, 2 acyl side, 3 side chain; linkers in the order of their positions; H or OH if unused. Non-standard residues stand in square brackets, D forms with d. Residues, ends and D or L forms follow the SMILES beside them. *: point of attachment. Exatecan = CC[C@@]1(O)C(=O)OCc2c1cc1n(c2=O)Cc2c-1nc1cc(F)c(C)c3c1c2[C@@H](N*)CC3; Hexanoyl(6-maleimido) = O=C1C=CC(=O)N1CCCCCC(=O)*; X3 = O=C1C=CC(=O)N1CC1CCC(C(=O)*)CC1; X1 = O=C1C=C(Br)C(=O)N1CCCCCC(=O)*; NHCH2OCH2CO = O=C(COCN[*:1])[*:2]
Endpoint: Ratio of aggregates (%)
Report as a plain number; the unit % is understood.

Molecule	Ratio of aggregates [%]
CCC1(O)C(=O)OC(=O)C2=C1C=C1c3nc4cc(F)c(C)c5c4c(c3CN1C2)C(NC(=O)COCNC(=O)CNC(=O)C(Cc1ccccc1)NC(=O)CNC(=O)CNC(=O)C(CN)N1C(=O)C=CC1=O)CC5 (stereo not shown)	1.5
CC[C@@]1(O)C(=O)OCc2c1cc1n(c2=O)Cc2c-1nc1cc(F)c(C)c3c1c2[C@@H](NC(=O)COCNC(=O)CNC(=O)[C@H](Cc1ccccc1)NC(=O)CNC(=O)CNC(=O)CCCCCN1C(=O)C=CC1=O)CC3 [GGFG-Dxd, reference compound] ({Hexanoyl(6-maleimido)}-GGFG[NHCH2OCH2CO]-Exatecan)	35
CC[C@@]1(O)C(=O)OCc2c1cc1n(c2=O)Cc2c-1nc1cc(F)c(C)c3c1c2[C@@H](NC(=O)COCNC(=O)CNC(=O)[C@H](Cc1ccccc1)NC(=O)CNC(=O)CNC(=O)CCCCCN1C(=O)C=C(Br)C1=O)CC3 [LE05] (X1-GGFG[NHCH2OCH2CO]-Exatecan)	2.3
CC[C@@]1(O)C(=O)OC(=O)C2=C1C=C1c3nc4cc(F)c(C)c5c4c(c3CN1C2)[C@@H](NC(=O)COCN(CCS(C)(=O)=O)C(=O)OCc1ccc(NC(=O)[C@H](C)NC(=O)[C@@H](NC(=O)C2CCC(CN3C(=O)C=CC3=O)CC2)C(C)C)cc1)CC5 (stereo partly shown)	1.5
CC[C@@]1(O)C(=O)OC(=O)C2=C1C=C1c3nc4cc(F)c(C)c5c4c(c3CN1C2)[C@@H](NC(=O)COCN(CCS(C)(=O)=O)C(=O)OCc1ccc(NC(=O)[C@H](C)NC(=O)[C@@H](NC(=O)CCCn2cc(CNC3CCC(CN4C(=O)C=CC4=O)CC3)nn2)C(C)C)cc1)CC5 (stereo partly shown)	2.1

IN: Supply Ratio of aggregates value. Item: CCC1(O)C(=O)OC(=O)C2=C1C=C1c3nc4cc(F)c(C)c5c4c(c3CN1C2)C(NC(=O)COCNC(=O)CNC(=O)C(Cc1ccccc1)NC(=O)CNC(=O)CNC(=O)C(CCCCN1C(=O)C=CC1=O)S(=O)(=O)O)CC5 (stereo not shown)
OUT: 1.8

IN: Supply Ratio of aggregates value. Item: CC[C@@]1(O)C(=O)OC(=O)C2=C1C=C1c3nc4cc(F)c(C)c5c4c(c3CN1C2)[C@@H](NC(=O)COCN(CCN(C)C)C(=O)OCc1ccc(NC(=O)[C@H](C)NC(=O)[C@@H](NC(=O)CCCCCN2C(=O)C=CC2=O)C(C)C)cc1)CC5
OUT: 2.3

IN: Supply Ratio of aggregates value. Item: CC[C@@]1(OCN(CCS(C)(=O)=O)C(=O)OCc2ccc(NC(=O)[C@H](C)NC(=O)[C@@H](NC(=O)CCCCCN3C(=O)C=CC3=O)C(C)C)cc2)C(=O)OCc2c1cc1n(c2=O)Cc2c-1nc1cc(F)c(C)c3c1c2[C@@H](NC(=O)CO)CC3
OUT: 2.3

IN: Supply Ratio of aggregates value. Item: CC[C@@]1(O)C(=O)OCc2c1cc1n(c2=O)Cc2c-1nc1cc(F)c(C)c3c1c2[C@@H](NC(=O)COCNC(=O)CNC(=O)[C@H](Cc1ccccc1)NC(=O)CNC(=O)[C@H](CCCCN)NC(=O)CCCCCN1C(=O)C=CC1=O)CC3.O=C(O)C(F)(F)F [LE07] ({Hexanoyl(6-maleimido)}-KGFG[NHCH2OCH2CO]-Exatecan)
OUT: 1.6

IN: Supply Ratio of aggregates value. Item: CC[C@@]1(O)C(=O)OC(=O)C2=C1C=C1c3nc4cc(F)c(C)c5c4c(c3CN1C2)[C@@H](NC(=O)COCN(CCS(C)(=O)=O)C(=O)OCc1ccc(NC(=O)[C@H](C)NC(=O)[C@@H](NC(=O)CCCCCN2C(=O)C=CC2=O)C(C)C)cc1)CC5
OUT: 2.5

IN: Supply Ratio of aggregates value. Item: CC[C@@]1(O)C(=O)OC(=O)C2=C1C=C1c3nc4cc(F)c(C)c5c4c(c3CN1C2)[C@@H](NC(=O)COCN(CCS(C)(=O)=O)C(=O)OCc1ccc(NC(=O)[C@H](C)NC(=O)[C@@H](NC(=O)C(CCCCN2C(=O)C=CC2=O)S(=O)(=O)O)C(C)C)cc1)CC5 (stereo partly shown)
OUT: 1.6

IN: Supply Ratio of aggregates value. Item: CC[C@@]1(O)C(=O)OC(=O)C2=C1C=C1c3nc4cc(F)c(C)c5c4c(c3CN1C2)[C@@H](NC(=O)COCN(CCS(C)(=O)=O)C(=O)OCc1ccc(NC(=O)[C@H](C)NC(=O)[C@@H](NC(=O)CCCn2cc(CNC(=O)CCCCCN3C(=O)C=CC3=O)nn2)C(C)C)cc1)CC5
OUT: 1.4

IN: Supply Ratio of aggregates value. Item: CC[C@@]1(O)C(=O)OCc2c1cc1n(c2=O)Cc2c-1nc1cc(F)c(C)c3c1c2[C@@H](NC(=O)COCNC(=O)CNC(=O)[C@H](Cc1ccccc1)NC(=O)CNC(=O)CNC(=O)C1CCC(CN2C(=O)C=CC2=O)CC1)CC3 (stereo partly shown) [LE01] (X3-GGFG[NHCH2OCH2CO]-Exatecan)
OUT: 2.0

====

- Tested on: anti-B7-H3 antibody P2E5
- Test Summary: Coupling of linker-drug conjugates with P2E5
- Format: physicochemical
- Test Conditions: coupling with P2E5, highest DAR (excessive coupling)
Starred links: 1 amine or outer side, 2 acyl side, 3 side chain; linkers in the order of their positions; H or OH if unused. Non-standard residues stand in square brackets, D forms with d. Residues, ends and D or L forms follow the SMILES beside them. *: point of attachment. Exatecan = CC[C@@]1(O)C(=O)OCc2c1cc1n(c2=O)Cc2c-1nc1cc(F)c(C)c3c1c2[C@@H](N*)CC3; Hexanoyl(6-maleimido) = O=C1C=CC(=O)N1CCCCCC(=O)*; X1 = O=C1C=C(Br)C(=O)N1CCCCCC(=O)*; NHCH2OCH2CO = O=C(COCN[*:1])[*:2]
# key: entry, value: Ratio of aggregates
Report as a plain number; the unit % is understood.

Examples from the recorded data:
Compound	Ratio of aggregates, %
CC[C@@]1(O)C(=O)OCc2c1cc1n(c2=O)Cc2c-1nc1cc(F)c(C)c3c1c2[C@@H](NC(=O)COCNC(=O)CNC(=O)[C@H](Cc1ccccc1)NC(=O)CNC(=O)CNC(=O)CCCCCN1C(=O)C=C(Br)C1=O)CC3 [LE05] (X1-GGFG[NHCH2OCH2CO]-Exatecan)	1.6
CC[C@@]1(O)C(=O)OC(=O)C2=C1C=C1c3nc4cc(F)c(C)c5c4c(c3CN1C2)[C@@H](NC(=O)COCN(CCS(C)(=O)=O)C(=O)OCc1ccc(NC(=O)[C@H](C)NC(=O)[C@@H](NC(=O)CCCCCN2C(=O)C=CC2=O)C(C)C)cc1)CC5	1.3
CCC1(O)C(=O)OC(=O)C2=C1C=C1c3nc4cc(F)c(C)c5c4c(c3CN1C2)C(NC(=O)COCNC(=O)CNC(=O)C(Cc1ccccc1)NC(=O)CNC(=O)CNC(=O)CCOCCOCCOCCOCCOCCOCCOCCOCCN1C(=O)C=CC1=O)CC5 (stereo not drawn)	2.5

IN: Supply Ratio of aggregates value. Item: CC[C@@]1(O)C(=O)OCc2c1cc1n(c2=O)Cc2c-1nc1cc(F)c(C)c3c1c2[C@@H](NC(=O)COCNC(=O)CNC(=O)[C@H](Cc1ccccc1)NC(=O)CNC(=O)[C@H](CCCCN)NC(=O)CCCCCN1C(=O)C=CC1=O)CC3.O=C(O)C(F)(F)F [LE07] ({Hexanoyl(6-maleimido)}-KGFG[NHCH2OCH2CO]-Exatecan)
OUT: 1.3

====

- Tested on: anti-Claudin18.2 antibody IMAB362
- Test Summary: Coupling of linker-drug conjugates with IMAB362
- Type: physicochemical
- Test Conditions: coupling with IMAB362, highest DAR (excessive coupling)
Starred links: 1 amine or outer side, 2 acyl side, 3 side chain; linkers in the order of their positions; H or OH if unused. Non-standard residues stand in square brackets, D forms with d. Residues, ends and D or L forms follow the SMILES beside them. *: point of attachment. Exatecan = CC[C@@]1(O)C(=O)OCc2c1cc1n(c2=O)Cc2c-1nc1cc(F)c(C)c3c1c2[C@@H](N*)CC3; Hexanoyl(6-maleimido) = O=C1C=CC(=O)N1CCCCCC(=O)*; NHCH2OCH2CO = O=C(COCN[*:1])[*:2]
Endpoint: Ratio of aggregates (%)
Report as a plain number; the unit % is understood.

Examples from the recorded data:
Compound	Ratio of aggregates / %
CC[C@@]1(OCN(CCN(C)C)C(=O)OCc2ccc(NC(=O)[C@H](C)NC(=O)[C@@H](NC(=O)CCCCCN3C(=O)C=CC3=O)C(C)C)cc2)C(=O)OCc2c1cc1n(c2=O)Cc2c-1nc1cc(F)c(C)c3c1c2[C@@H](NC(=O)CO)CC3	1.5
CC[C@@]1(O)C(=O)OC(=O)C2=C1C=C1c3nc4cc(F)c(C)c5c4c(c3CN1C2)[C@@H](NC(=O)COCN(CCN(C)C)C(=O)OCc1ccc(NC(=O)[C@H](C)NC(=O)[C@@H](NC(=O)C2CCC(CN3C(=O)C=CC3=O)CC2)C(C)C)cc1)CC5 (stereo partly shown)	1.6
CC[C@@]1(O)C(=O)OCc2c1cc1n(c2=O)Cc2c-1nc1cc(F)c(C)c3c1c2[C@@H](NC(=O)COCNC(=O)CNC(=O)[C@H](Cc1ccccc1)NC(=O)[C@H](CS)NC(=O)[C@@H](NC(=O)CCCCCN1C(=O)C=CC1=O)C(C)C)CC3 [LE24] ({Hexanoyl(6-maleimido)}-VCFG[NHCH2OCH2CO]-Exatecan)	2.0

Attention now turns to another entry.
IN: Supply Ratio of aggregates value. Item: CC[C@@]1(O)C(=O)OCc2c1cc1n(c2=O)Cc2c-1nc1cc(F)c(C)c3c1c2[C@@H](NC(=O)COCNC(=O)CNC(=O)[C@H](Cc1ccccc1)NC(=O)[C@H](C)NC(=O)[C@@H](NC(=O)CCCCCN1C(=O)C=CC1=O)C(C)C)CC3 [LE23] ({Hexanoyl(6-maleimido)}-VAFG[NHCH2OCH2CO]-Exatecan)
OUT: 1.6
